Could you please report measured IC50 for the items listed next?
- tested-on: trypsin-activated recombinant human renin (Homo sapiens, UniProt P00797)
- Sequence (P00797 67-406): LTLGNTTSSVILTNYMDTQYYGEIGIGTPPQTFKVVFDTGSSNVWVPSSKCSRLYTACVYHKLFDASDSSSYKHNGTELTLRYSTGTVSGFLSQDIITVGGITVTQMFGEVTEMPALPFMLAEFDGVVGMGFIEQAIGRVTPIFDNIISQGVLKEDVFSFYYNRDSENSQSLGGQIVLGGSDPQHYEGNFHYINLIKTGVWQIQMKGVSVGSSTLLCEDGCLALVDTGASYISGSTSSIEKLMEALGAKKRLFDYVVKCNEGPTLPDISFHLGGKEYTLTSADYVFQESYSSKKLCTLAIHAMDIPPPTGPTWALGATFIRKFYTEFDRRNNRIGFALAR
- assay-method-text: Renin fluorescence assay (internally quenched peptide substrate)
- Type: biochemical
- run-parameters: compounds I*

**Query** Please report the recorded IC50 for CNC[C@H](CC1CCCOCC1)NC(=O)N1CCC[C@@H]([C@@H](OCCNC(=O)OC)c2cccc(F)c2)C1 (some centres unmarked) [I*-47a] .
**Result** < 10 nM

**Query** Please report the recorded IC50 for CCNC[C@H](CC1CCCCC1)NC(=O)N1CCC[C@@H]([C@@H](OCCNC(=O)OC)c2cccc(F)c2)C1 [I*-41a] .
**Result** < 10 nM

**Query** Please report the recorded IC50 for CNC[C@H](C[C@H]1CCCCOC1)NC(=O)N1CCC[C@@H]([C@@H](OCCNC(=O)OC)c2ccccc2)C1 [I*-21a] .
**Result** < 10 nM

**Query** Please report the recorded IC50 for CNC[C@H](C[C@H]1C[C@@H](F)[C@@H](F)C1)NC(=O)N1CCC[C@@H]([C@@H](OCCNC(=O)OC)c2cccc(Cl)c2)C1 [I*-124a] .
**Result** < 20 nM

**Query** Please report the recorded IC50 for CN[C@H](CNC(=O)N1CCC[C@@H]([C@@H](OCCNC(=O)OC)c2cccc(Cl)c2)C1)C[C@H]1CCCCOC1 [I*-110a] .
**Result** < 1 nM

**Query** Please report the recorded IC50 for CNC[C@H](CC1CCOCC1)NC(=O)N1CCC[C@@H]([C@@H](OCCNC(=O)OC)c2cc(F)ccc2C)C1 [I*-50a] .
**Result** < 10 nM

**Query** Please report the recorded IC50 for CNC[C@H](CCC1(OC)CCCC1)NC(=O)N1CCC[C@@H]([C@@H](OCCNC(=O)OC)c2cccc(F)c2)C1 [I*-78a] .
**Result** > 50 nM

**Query** Please report the recorded IC50 for CNC[C@H](CCC1(OC)CCCC1)NC(=O)N1CCC[C@@H]([C@@H](OCCNC(=O)OC)c2cc(F)cc(F)c2)C1 [I*-134a] .
**Result** > 50 nM

**Query** Please report the recorded IC50 for CNC[C@H](CC1(C)CCCCC1)NC(=O)N1CCC[C@@H]([C@@H](OCCNC(=O)OC)c2cc(F)cc(F)c2)C1 [I*-95a] .
**Result** < 10 nM

**Query** Please report the recorded IC50 for CN[C@H](CNC(=O)N1CCC[C@@H]([C@@H](OCCNC(=O)OC)c2cc(F)cc(Cl)c2)C1)C[C@H]1CCCCOC1 [I*-143a] .
**Result** < 1 nM

**Query** Please report the recorded IC50 for CNC[C@H](CC1CCOCC1)NC(=O)N1CCC[C@@H]([C@@H](OCCNC(=O)OC)c2ccc(F)c(Cl)c2F)C1 [I*-148a] .
**Result** > 50 nM

**Query** Please report the recorded IC50 for CNC[C@H](C[C@H]1CCCOCC1)NC(=O)N1CCC[C@@H]([C@@H](OCCNC(=O)OC)c2cccc(Cl)c2)C1 [I*-98a] .
**Result** < 10 nM

**Query** Please report the recorded IC50 for CNC[C@H](CC1CCCC1)NC(=O)N1CCC[C@@H]([C@@H](OCCNC(=O)OC)c2cc(Cl)ccc2C)C1 [I*-60a] .
**Result** < 1 nM

**Query** Please report the recorded IC50 for CNC[C@H](CC1CCCCC1)NC(=O)N1CCC[C@@H]([C@H](OCCNC(=O)OC)c2nc(C)cs2)C1 [I*-33a] .
**Result** > 50 nM

**Query** Please report the recorded IC50 for CNC[C@H](CCCOC)NC(=O)N1CCC[C@@H]([C@@H](OCCNC(=O)OC)c2cccc(Cl)c2)C1 .
**Result** > 50 nM

**Query** Please report the recorded IC50 for CNC[C@H](CC12CC3CC(CC(C3)C1)C2)NC(=O)N1CCC[C@@H]([C@@H](OCCNC(=O)OC)c2cccc(F)c2)C1 [I*-145a] .
**Result** < 10 nM

**Query** Please report the recorded IC50 for COCC(C)(C)C[C@H](N)CNC(=O)N1CCC[C@@H]([C@@H](OCCNC(=O)OC)c2cccc(F)c2)C1 [I*-14a] .
**Result** > 50 nM

**Query** Please report the recorded IC50 for CNC[C@H](C[C@H]1CCCCOC1)NC(=O)N1CCC[C@@H]([C@@H](OCCNC(=O)OC)c2cccc(Cl)c2)C1 [I*-106a] .
**Result** < 1 nM

**Query** Please report the recorded IC50 for CNC[C@H](CC1CCCC1)NC(=O)N1CCC[C@@H]([C@@H](OCCNC(=O)OC)c2cccc(Cl)c2)C1 [I*-29a] .
**Result** < 1 nM

**Query** Please report the recorded IC50 for CNC[C@H](CC1CCCCC1)NC(=O)N1CCC[C@@H]([C@H](CCCNC(=O)OC)c2cccc(F)c2)C1 [I*-22a] .
**Result** > 50 nM

**Query** Please report the recorded IC50 for CNC[C@@H](C[C@H]1CCCC[C@@H]1O)NC(=O)N1CCC[C@@H]([C@@H](OCCNC(=O)OC)c2cccc(Cl)c2)C1 (relative stereo) [I*-104a] .
**Result** < 20 nM

**Query** Please report the recorded IC50 for CNC[C@H](CC1CCCCC1)NC(=O)N1CCC[C@@H]([C@@H](OCCNC(=O)OC)c2c(C)ccc(F)c2F)C1 [I*-96a] .
**Result** < 10 nM

**Query** Please report the recorded IC50 for CNC[C@H](CC1CCCC1)NC(=O)N1CCC[C@@H]([C@@H](OCCNC(=O)OC)c2cc(F)ccc2C)C1 [I*-24a] .
**Result** < 1 nM

**Query** Please report the recorded IC50 for COC(=O)NCCO[C@@H](c1cc(F)cc(Cl)c1)[C@@H]1CCCN(C(=O)NC[C@@H](N)C[C@H]2CCCCOC2)C1 [I*-122a] .
**Result** < 10 nM

**Query** Please report the recorded IC50 for CNC[C@H](CC1CCCCC1)NC(=O)N1CCC[C@@H]([C@@H](OCCNC(=O)OC)c2cccc(C)c2)C1 [I*-18a] .
**Result** < 1 nM

**Query** Please report the recorded IC50 for CNC[C@H](CC1CCOCC1)NC(=O)N1CCC[C@@H]([C@@H](OCCNC(=O)OC)c2ccccc2)C1 .
**Result** < 50 nM

Hey, just so you know, these numbers are from patent US8487108B2.
